Origin of measurements: ChEMBL document CHEMBL3351410

Form field: Selectivity ratio (one value per entry).
species: Homo sapiens; assay: Selectivity for PDE5 (unknown origin) over PDE6 (unknown origin)
Could you keep your reply to the number by itself?

COc1ccc(CNc2nc(N3CCC[C@H]3CO)ncc2C(=O)NCc2ncccn2)cc1Cl 121
CCCc1nn(C)c2c(=O)[nH]c(-c3cc(S(=O)(=O)N4CCN(C)CC4)ccc3OCC)nc12 16
CN1CC(=O)N2[C@H](c3ccc4c(c3)OCO4)c3[nH]c4ccccc4c3C[C@@H]2C1=O 550

Next compound, please.
# Selectivity ratio (compound: CCCc1nc(C)c2c(=O)nc(-c3cc(S(=O)(=O)N4CCN(CC)CC4)ccc3OCC)[nH]n12 ) is 21

====

# reported Selectivity ratio; entries follow
experiment: Selectivity for dog lungs PDE5 over light-activated bovine retina PDE6
A bare number is all that is needed in reply.

Previously resolved entries follow.
COMPOUND	REPORTED
COc1ccc(CNc2nc(OCc3ccccn3)ncc2C(=O)NCCCCO)cc1Cl	480
COc1ccc(CNc2nc(N3CCC[C@H]3CO)ncc2C(=O)NCc2ncccn2)cc1Cl	4000
COc1ccc(CNc2nc(OCc3ccccn3)ncc2C(=O)NCCN2CCOCC2)cc1Cl	630

The compound listed as COc1ccc(CNc2nc(N3CCC[C@H]3CO)ncc2C(=O)NCC2CN(C)CCO2)cc1Cl (stereo not given in full) has a reported Selectivity ratio of 2000

Short answer for COc1ccc(CNc2nc(OCc3ccccn3)ncc2C(=O)NCCCO)cc1Cl : Selectivity ratio was 420

Query COc1ccc(CNc2nc(OCc3ccccn3)ncc2C(=O)NCc2ncccn2)cc1Cl yields Selectivity ratio of 720

response.value for COc1ccc(CNc2nc(OCc3ccccn3)ncc2C(=O)OCc2ccccn2)cc1Cl (field: Selectivity ratio) = 1000

# compound COc1ccc(CNc2nc(OCc3ccccn3)ncc2C(=O)N[C@H]2CC[C@H](O)CC2)cc1Cl ; its Selectivity ratio = 510

====

Each entry below carries its reported EC30.
system: Corpus cavernosum; test: Induction of relaxant effect in rabbit corpus cavernosum after 30 mins; assay type: functional, Oryctolagus cuniculus
Field: numeric (nM). Do not append units.

Take a look at these entries with their results.
COMPOUND	UNIT_ABBREV	EC30
COc1ccc(CNc2nc(N3CCC[C@H]3CO)ncc2C(=O)NCc2ncccn2)cc1Cl [AVANAFIL]	nM	2.1
CCOC(=O)c1cnc(OCc2ccccn2)nc1NCc1ccc(OC)c(Cl)c1	nM	37
COc1ccc(CNc2nc(N3CCC[C@H]3CO)ncc2C(=O)NCc2ccccn2)cc1Cl	nM	22

So, COc1ccc(CNc2nc(N3CCC[C@H]3CO)ncc2C(=O)N[C@H]2CC[C@H](OC)CC2)cc1Cl ? Its EC30 was 6.8

response.value for COc1ccc(CNc2nc(N3CCC[C@H]3CO)ncc2C(=O)NCCCO)cc1Cl (field: EC30) = 4.9

Reported EC30 ( COc1ccc(CNc2nc(N3CCC[C@H]3CO)ncc2C(=O)NCC2CN(C)CCO2)cc1Cl (some centres not stated) ) = 2.7

====

assay: Selectivity for dog lungs PDE5 over light-activated bovine retina PDE6
OUTCOME_MEASURE: Selectivity ratio
Write the value as a bare number.

Solved cases (3 shown):
COc1ccc(CNc2nc(OCc3ccccn3)ncc2C(=O)OCc2ncccn2)cc1Cl 640
COc1ccc(CNc2nc(OCc3ccccn3)ncc2C(=O)NCc2ccccn2)cc1Cl 480
COc1ccc(CNc2nc(N3CCC[C@H]3CO)ncc2C(=O)NCCCO)cc1Cl 1500

Entry COc1ccc(CNc2nc(N3CCC[C@H]3CO)ncc2C(=O)NCc2ccccn2)cc1Cl , Selectivity ratio reported as 4300

# Selectivity ratio of COCCCNC(=O)c1cnc(OCc2ccccn2)nc1NCc1ccc(OC)c(Cl)c1 = 240

Looking up COc1ccc(CNc2nc(N3CCC[C@H]3CO)ncc2C(=O)N[C@H]2CC[C@H](O)CC2)cc1Cl , I see its Selectivity ratio listed as 5600

Record COc1ccc(CNc2nc(N3CCC[C@H]3CO)ncc2C(=O)N[C@H]2CC[C@H](OC)CC2)cc1Cl , field Selectivity ratio: 7700
